Measured MIC by item
Test system: C. auris AR Bank #383
PROTOCOL_DETAILS: MIC determination by in vitro antifungal assay
Type: cell-based, Candida auris
MEASUREMENT_CONDITIONS: Candidozyma auris; C. auris AR Bank # 383 (Table 2B); read-out: MIC

[
  {
    "MOLECULAR_STRING": "O=C(NNc1cc(Cl)cc(Cl)c1)c1ccc(F)cc1F",
    "MIC": "> 31.3 µg/mL"
  }
]

input: MIC for O=C(NNc1ccc(F)cc1F)c1ccc(F)cn1 ?
output: 1.95 µg/mL

input: Request the reported MIC associated with COc1ccc(NNC(=O)c2ncc(F)cc2F)cc1
output: 0.98 µg/mL

input: For the molecule O=C(NNc1ccc(F)cc1)c1nc(F)ccc1F , what MIC is on record?
output: 0.98 µg/mL
